Target: T1, HTRA3, P83110
T1 sequence (P83110 354-453, limits assumed, looked up): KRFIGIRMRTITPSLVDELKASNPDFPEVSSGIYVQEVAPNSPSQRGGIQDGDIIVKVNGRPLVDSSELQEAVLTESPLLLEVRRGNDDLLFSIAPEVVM
Test: holdup assay
Design: key: below the threshold = too weak to quantify, mostly under pKd 3.1 to 4
Conditions: plain residues with an end cap or a label only (N-terminal biotin on a linker: ado-ado)
Measure: pKd

Observe how each entry below is paired with its result.
>>> print(df.to_string())
                        binder  reported_measurement
0  QSARLWETSI [ADAM22, Q9P0K1]   below the threshold
1  EKKTLIGIKL [GOT1L1, Q8NHS2]   below the threshold
2   SSALYGESDL [ACTN2, P35609]   below the threshold
3  DDEDRLVIEI [ZNF831, Q5JPB2]                     4
4  PRAEAEDSFL [PDGFRB, P09619]   below the threshold
5  LPHGHSTTRV [NLGN4X, Q8N0W4]   below the threshold

pKd measured on VNKSKLLTDV [KCNA1, Q09470] = below the threshold

pKd measured on TKGPRGPTRV [SAPCD1, Q5SSQ6] = below the threshold

pKd measured on KSGKQTMLVV [TRIM29, Q14134;Q14134-2] = below the threshold

pKd measured on QGLAERISVL [PRKD2, Q9BZL6] = below the threshold

Data origin: paper PMC9482650
